Tested on: CD4+ T cells
ASSAY NOTES: HLA class II T-cell proliferation assay (ProImmune, CFSE)
Type: cell-based, human
CONDITION PARAMETERS: 21 donor samples; 5 μM peptide; 7 days; positive = over 0.02% stimulation above background
OUTCOME MEASURE: Number of positive donors
Just the number, please, no unit attached.

| SUBSTANCE | STUDY TARGET | Number of positive donors |
| --- | --- | --- |
| TGFBI-004: IMA910 class II peptide, positive control with known in vivo immunogenicity (TPPIDAHTRNLLRNH; listed as Homo sapiens) [reference compound] | CD4+ T cells | 2 |

Exercise: # get_value(readout='Number of positive donors', item= LAMP3-002 (IQLIVQDKESVFSPR; listed as Homo sapiens) )
Key: 5

Exercise: # get_value(readout='Number of positive donors', item= MET-005: IMA950 class II peptide, positive control with known in vivo immunogenicity (TFSYVDPVITSISPKYG; listed as Homo sapiens) [reference compound] )
Key: 4

Exercise: # get_value(readout='Number of positive donors', item= BIR-002: IMA950 class II peptide, positive control with known in vivo immunogenicity (TLGEFLKLDRERAKN; listed as Homo sapiens) [reference compound] )
Key: 3

Exercise: # get_value(readout='Number of positive donors', item= ITGB6-001 (NPVSQVEILKNKPLSVG; listed as Homo sapiens) )
Key: 6

Exercise: # get_value(readout='Number of positive donors', item= MMP-001: IMA910 class II peptide, positive control with known in vivo immunogenicity (SQDDIKGIQKLYGKRS; listed as Homo sapiens) [reference compound] )
Key: 2

Exercise: # get_value(readout='Number of positive donors', item= CEA-006: IMA910 class II peptide, positive control with known in vivo immunogenicity (SPQYSWRINGIPQQHT; listed as Homo sapiens) [reference compound] )
Key: 1

Exercise: # get_value(readout='Number of positive donors', item= COL11A1-001 (EGDIQQFLITGDPKAAYDY; listed as Homo sapiens) )
Key: 5

Exercise: # get_value(readout='Number of positive donors', item= MMP12-007 (LSADDIRGIQSLYGDPK; listed as Homo sapiens) )
Key: 2

Exercise: # get_value(readout='Number of positive donors', item= LAMC2-003 (DAVQMVITEAQKVDTR; listed as Homo sapiens) )
Key: 3

###

Quick reference: Number of positive donors of the listed items.
Test system: CD4+ T cells
ASSAY NOTES: HLA class II T-cell proliferation assay (ProImmune, CFSE)
Assay type: cell-based, human
CONDITION PARAMETERS: 21 donor samples; 5 μM peptide; 7 days; positive = over 0.02% stimulation above background
Procedure: The experiments as follows summarize the results of T-cell Proliferation Assays of selected MHC class II TUMAPs. Nine of 10 tested peptide antigens tested positive for immunogenicity. […] In order to characterize selected peptides for their potential especially as vaccine candidates, their in vitro immunogenicity was determined by analysis of T-cell proliferation using a commercial T-cell Proliferation Assay from the company ProImmune. […]
Just the number, please, no unit attached.

Solved cases below.
| SUBSTANCE | NUMBER |
| --- | --- |
| COL5A2-001 (VARLPIIDLAPVDVGGTD; listed as Homo sapiens) | 2 |
| POSTN-002 (TNGVIHVVDKLLYPADT; listed as Homo sapiens) | 2 |
| IGF2BP3-002 (KLYIGNLSENAAPS; listed as Homo sapiens) | 3 |

# next substance below
Exercise: # get_value(readout='Number of positive donors', item= COL1A2-001 (NKPSRLPFLDIAPLDIGGAD; listed as Homo sapiens) )
Key: 2
